Test: chemical genetic growth profiling, strain panel (AID 1159580);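 note: tested at 20 µM; growth read once vehicle control cultures reached saturation at 30 °C; 1 = growth at the plate median or of vehicle wells; lower values mean less growth of the strain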
Conditions: S. cerevisiae deletion strains, growth OD, locus YPL078C, strain atp4
In all, about 5,500 compounds went through this assay and about 2,000 (36%) were called active. Inconclusive results (about 18%) are left out. Cut-off read from the data, not from the text of the source: active = normalized growth mostly below about 0.91 (no sharp cut-off); inconclusive = no clear call, values can overlap the other calls; inactive = mostly above about 0.92. The list shows a part of the results.
Select the matching outcome among True for active, False for inactive

Would you mind telling me which call this test gave COC1CC(O[C@H]2CC[C@]3(C=O)C4CC[C@]5(C)C(C6=CC(=O)OC6)CC[C@]5(O)C4CC[C@]3(O)C2)OC(C)C1O (stereo partly specified) ? False

Okay, and CO[C@H]1[C@@H](O)[C@@H](C)O[C@H](O[C@H]2CCC3(C)C4CCC5(C)[C@@H](C6=CC(=O)OC6)CC[C@]5(O)[C@@H]4CC[C@]3(O)C2)[C@@H]1O (stereo partly specified) ? False

Okay, and CC(C)c1cccc(O)c(=O)c1 ? True

Okay, and CNC[C@H](O)c1cccc(O)c1 ? False

Okay, and C[C@H]1O[C@@H](O[C@H]2[C@@H](O)C[C@H](O[C@H]3[C@@H](O)C[C@H](O[C@H]4CC[C@]5(C)C6CC[C@]7(C)[C@@H](C8=CC(=O)OC8)CC[C@]7(O)C6CC[C@@H]5C4)O[C@@H]3C)O[C@@H]2C)C[C@H](O)[C@@H]1O (stereo partly specified) ? False

Okay, and CC(=O)N1CCN(c2ccc(OCC3CO[C@](Cn4ccnc4)(c4ccc(Cl)cc4Cl)O3)cc2)CC1 (stereo partly specified) ? True

Okay, and NCC(O)CC(=O)O (stereo unspecified) ? False

Okay, and COC1=CC(=O)C=C(OC)C1=O ? False

Okay, and COC(=O)C(N)CS (stereo unspecified) ? False

Okay, and COc1ccc(-c2cc(=O)c3c(O)cc(O)cc3o2)cc1 ? False

Okay, and Nc1nc(/C(=C/CC(=O)O)C(=O)N[C@@H]2C(=O)N3C(C(=O)O)=CCS[C@H]23)cs1 ? False

* * *

Test: chemical genetic growth profiling, strain panel (AID 1159580)
Conditions: S. cerevisiae deletion strains, growth OD, locus YBR229C, strain ROT2, hits give low values
The whole screen tested about 5,500 compounds, of which about 2,000 (36%) were called active. Roughly 18% stayed inconclusive and do not appear here. The list shows a part of the results.
measuredMetric: normalized growth
Respond numerically, and do not add a unit to the figure.

{"compound": "CC(=O)N1CCN(c2ccc(OCC3CO[C@](Cn4ccnc4)(c4ccc(Cl)cc4Cl)O3)cc2)CC1 (some centres undefined)", "normalized growth": 0.124}

Request the reported normalized growth associated with CCCc1nn(C)c2c(=O)[nH]c(-c3cc(S(=O)(=O)N4CCN(C)CC4)ccc3OCC)nc12 1.02

Okay, and O=C(O)CCc1nc(-c2ccccc2)c(-c2ccccc2)o1 ? 0.929

Okay, and O=C1C(c2ccc(Br)cc2)=C(O)c2ccccc21 ? 0.912

Okay, and Cc1ccccc1N1C(=O)c2cc(S(N)(=O)=O)c(Cl)cc2NC1C (centres undefined) ? 0.982

Okay, and COC(=O)C[C@H]1C(C)(C)[C@@H](O)[C@@H]2CC3=C4CC(O)O[C@@H](c5ccoc5)[C@]4(C)CCC3[C@@]1(C)C2=O (some centres undefined) ? 1

Okay, and CC(=O)[C@@]1(O)CCC2C3C=C(Cl)C4=CC(=O)[C@@H]5CC5[C@]4(C)C3CC[C@@]21C (some centres undefined) ? 1.01

Okay, and Cn1c2c(c3ccccc31)/C(=N\OC(=O)c1ccc(Cl)cc1Cl)CCC2 ? 1.03

Okay, and CCCCC(=O)O[C@]1(C(=O)CO)[C@@H](C)CC2C3CCC4=CC(=O)C=C[C@]4(C)[C@@]3(F)C(O)C[C@@]21C (some centres undefined) ? 0.99

Okay, and O=C(Nc1ccccc1)N1CCN(C(c2ccccc2)c2ccccc2)CC1 ? 0.992

Okay, and CC1CCCC(C)N1NC(=O)c1ccc(Cl)c(S(N)(=O)=O)c1 (centres undefined) ? 0.996

* * *

Test: chemical genetic growth profiling, strain panel (AID 1159580)
Details: S. cerevisiae deletion strains, growth OD, locus YNL271C, strain bni1
Among all 5,500 compounds or so, about 2,000 (36%) were called active. Another 18% or so got no clear call; they are omitted. No stated cut-off is given here; in the data, active means normalized growth mostly below about 0.91 (no sharp cut-off); inconclusive means no clear call, values can overlap the other calls; inactive means mostly above about 0.92. The list shows a part of the results.
Select the matching outcome among YES = active, NO = inactive

Would you mind telling me which call this test gave COC(=O)NC(=S)Nc1ccccc1NC(=S)NC(=O)OC ? NO

Okay, and CCOC(=O)CC(SP(=S)(OC)OC)C(=O)OCC (stereo not drawn) ? NO

Okay, and CC1(C)Oc2ccc3ccc(=O)oc3c2CC1O (stereo not drawn) ? NO

Okay, and CCOC(=O)C1=C(O)C(=O)N(Cc2ccccc2)C1 ? NO

* * *

Assay: chemical genetic growth profiling, strain panel (AID 1159580)
Settings: S. cerevisiae deletion strains, growth OD, locus YLL041C, strain sdh2, hits give low values
The campaign covered roughly 5,500 compounds. About 2,000 (36%) were called active. Roughly 18% stayed inconclusive and do not appear here. The list shows a part of the results.
measuredMetric: normalized growth
Respond numerically, and do not add a unit to the figure.

// known answers, use as guide
{"compound": "NCC(O)CC(=O)O (stereo not given)", "normalized growth": 1}
{"compound": "O=C(CCCN1CCC(O)(c2ccc(Cl)cc2)CC1)c1ccc(F)cc1", "normalized growth": 1.02}
{"compound": "CC(C)=CC1C(CO)C1(C)C (stereo not given)", "normalized growth": 1.01}

Next:
Request the reported normalized growth associated with COc1cc(-c2cc(=O)c3c(O)c(OC)c(OC)c(OC)c3o2)cc(OC)c1OC 1.01

* * *

// values below are reported normalized growth
Assay: chemical genetic growth profiling, strain panel (AID 1159580);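 note: tested at 20 µM; growth read once vehicle control cultures reached saturation at 30 °C; 1 = growth at the plate median or of vehicle wells; lower values mean less growth of the strain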
Details: S. cerevisiae deletion strains, growth OD, locus YIL125W, strain kgd1, hits give low values
Hit rate of the full screen: of about 5,500 compounds, about 2,000 (36%) were called active. Another 18% or so got no clear call; they are omitted. Some of the results follow.
Respond numerically, and do not add a unit to the figure.

{"compound": "CN(C)C(=O)C(CCN1CCC(O)(c2ccc(Cl)cc2)CC1)(c1ccccc1)c1ccccc1", "normalized growth": 1.01}

Request the reported normalized growth associated with COC(=O)C(N)CS (stereo not given) 0.991

Okay, and CC(=O)O[C@@H]1CC2C(C)(C)CCC[C@]2(C)C2CC[C@]3(C)C(=CC(=O)O[C@H]3c3ccoc3)[C@@]21C (stereo not given in full) ? 1

Okay, and CC(C)(C)NCC(O)COc1cccc2c1C[C@H](O)[C@H](O)C2 (stereo not given in full) ? 0.998

Okay, and O=C(CCCN1CCC2(CC1)C(=O)NCN2c1ccccc1)c1ccc(F)cc1 ? 0.984

* * *

Test: chemical genetic growth profiling, strain panel (AID 1159580);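 note: tested at 20 µM; growth read once vehicle control cultures reached saturation at 30 °C; 1 = growth at the plate median or of vehicle wells; lower values mean less growth of the strain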
Conditions: S. cerevisiae deletion strains, growth OD, locus YNL307C, strain MCK1, hits give low values
The campaign covered roughly 5,500 compounds. About 2,000 (36%) were called active. Another 18% or so got no clear call; they are omitted. The list shows a part of the results.
// values below are reported normalized growth
Respond numerically, and do not add a unit to the figure.

// known answers, use as guide
{"compound": "CC1(C)S[C@@H]2C(N3C(=O)[C@@H](c4ccccc4)NC3(C)C)C(=O)N2[C@H]1C(=O)O (some centres undefined)", "normalized growth": 1.03}
{"compound": "CC1(C)S[C@@H]2[C@H](NC(=O)C(C(=O)O)c3ccccc3)C(=O)N2[C@H]1C(=O)O (some centres undefined)", "normalized growth": 0.992}
{"compound": "Nc1nc(/C(=C/CC(=O)O)C(=O)N[C@@H]2C(=O)N3C(C(=O)O)=CCS[C@H]23)cs1", "normalized growth": 0.998}
{"compound": "Cc1c(C(N)=O)cc([N+](=O)[O-])cc1[N+](=O)[O-]", "normalized growth": 0.978}

Request the reported normalized growth associated with COC(=O)NC(=S)Nc1ccccc1NC(=S)NC(=O)OC 0.986

Okay, and CC1(C)[C@@H]2CC[C@@]1(C)C(=O)C2 ? 0.997

* * *

Assay: chemical genetic growth profiling, strain panel (AID 1159580);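 note: tested at 20 µM; growth read once vehicle control cultures reached saturation at 30 °C; 1 = growth at the plate median or of vehicle wells; lower values mean less growth of the strain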
Conditions: S. cerevisiae deletion strains, growth OD, locus YPL051W, strain arl3, hits give low values
The campaign covered roughly 5,500 compounds. About 2,000 (36%) were called active. About 18% were inconclusive and are not listed. Some of the results follow.
With a cut-off of 1, any normalized growth strictly below it is called label 1; any normalized growth meeting it or above is called label 0.

Worked cases, answers included:
{"compound": "O=c1c2cc(O)c(O)cc2oc2cc(O)c(C3O[C@H](CO)[C@H](O)[C@@H](O)[C@H]3O)c(O)c12 (stereo partly drawn)", "labelValue": "label 1"}
{"compound": "CO[C@@H]1[C@@H](OC(N)=O)[C@@H](O)[C@H](Oc2ccc3c(O)c(NC(=O)c4ccc(O)c(CC=C(C)C)c4)c(=O)oc3c2C)OC1(C)C", "labelValue": "label 0"}

Just wondering, is normalized growth of CC(=O)O[C@@H]1c2c(ccc3ccc(=O)oc23)OC(C)(C)[C@@H]1OC(=O)CC(C)C below 1? label 1

Okay, and COC(=O)C[C@H]1C(C)(C)[C@@H](O)[C@@H]2CC3=C4CC(O)O[C@@H](c5ccoc5)[C@]4(C)CCC3[C@@]1(C)C2=O (stereo partly drawn) ? label 0
